# reported melting point; entries follow

> print(dat)
                                   compound   measure.name            val
1  CCCCCCCN(CCO)c1ccc2c(c1)Oc1cc(=C(C#N)C#N)c3ccccc3c1=N2  melting point  155 to 157 °C
2         CCCc1nc(NCCOC(N)=O)nc(N2CCOCC2)n1  melting point  139 to 140 °C
3  CCCCc1nccn1Cc1ccc2oc(-c3ccccc3C(=O)O)cc2c1  melting point  153 to 157 °C
4  Cc1ccc(C2CC(C(N)=O)=NN2c2ccc(S(N)(=O)=O)cc2)cc1 (stereo not given)  melting point  210 to 215 °C

Now for another entry.
Exercise: Entry C=Cn1cc(C(=O)O)c(=O)c2cc(F)c(N3CCC4CCC(C3)N4C)cc21 (stereo not given) has what melting point?
Key: 214 to 215 °C
